# CC50 per entry
- System: Vero cells
- measurement parameters: African green monkey
Reply with just the number (in µM).

Known results for compounds:
compound: COc1cc(NC(C(=O)N2CCc3ccc(S(F)(F)(F)(F)F)cc32)c2ccc(Cl)cc2)cc(OCCCC(=O)O)c1 (single isomer, unassigned) [Compound 1B]
CC50 (µM): 13
//
compound: COc1cc(NC(C(=O)N2CCc3ccc(OC(F)(F)F)cc32)c2ccc(F)cc2OC)cc(OCCCC(=O)O)c1 (single isomer, unassigned) [Compound 6B]
CC50 (µM): 15

Name the recorded CC50 of the compound listed here: COc1cc(NC(C(=O)N2CCc3cc(F)c(OC(F)(F)F)cc32)c2ccc(Cl)cc2)cc(OCCCC(=O)O)c1 (single isomer, unassigned) [Compound 5B] 12

Supply CC50 value. Item: COc1cc(NC(C(=O)N2CCc3c(C)cc(C(F)(F)F)cc32)c2ccc(Cl)cc2)cc(OCCCC(=O)O)c1 (single isomer, unassigned) [Compound 2B] 14

State its CC50 for this compound: [2H]C(Nc1cc(OC)cc(OCCCC(=O)O)c1)(C(=O)N1CCc2ccc(OC(F)(F)F)cc21)c1ccc(Cl)cc1 (single isomer, unassigned) [Compound 7B-D] 9.6

Look up CC50 of COc1cc(NC(C(=O)N2CCc3sc(C(F)(F)F)cc32)c2ccc(Cl)cc2)cc(OCCCC(=O)O)c1 (single isomer, unassigned) [Compound 10B] and report it. 12

---

- assay notes: in vitro
- Assay type: cell-based
- measurement parameters: African green monkey
value type: CC50 at 3 days (µM)
Number only, in µM; omit the unit.

Give CC50 at 3 days for COc1cc(NC(C(=O)N2CCc3ccc(OC(F)(F)F)cc32)c2ccc(F)cc2OC)cc(OCCCC(=O)O)c1 (single isomer, unassigned) 13
